Origin of the recorded values: PubChem BioAssay AID1159580

experiment: chemical genetic growth profiling, strain panel (AID 1159580);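 further: tested at 20 µM; growth read once vehicle control cultures reached saturation at 30 °C; 1 = growth at the plate median or of vehicle wells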; conditions: S. cerevisiae deletion strains, growth OD, locus YHR013C, strain ard1, active compounds read low
Among all 5,500 compounds or so, about 2,000 (36%) were called active. Not shown: some 18% with an inconclusive outcome. Some of the results follow.
Mark criterion met only when normalized growth stays strictly below 1. Values equal to the cut-off are criterion not met.

The following compounds have reported results that may help.
compound	category
NC(=O)c1ccc([N+](=O)[O-])cc1Cl	criterion met
O=c1c(O)cc([C@H]2Oc3cc(O)cc(O)c3C[C@H]2O)cc2c([C@H]3Oc4cc(O)cc(O)c4C[C@H]3O)cc(O)c(O)c12	criterion not met
CO[C@H]1[C@@H](O)[C@@H](C)O[C@H](O[C@H]2CCC3(C)C4CCC5(C)[C@@H](C6=CC(=O)OC6)CC[C@]5(O)[C@@H]4CC[C@]3(O)C2)[C@@H]1O (stereo not given in full)	criterion not met

Inquiry: # TODO verify normalized growth < 1 strictly for this compound: CCC(=O)OCC(=O)C1(OC(=O)CC)C(C)CC2C3C(Cl)CC4=CC(=O)C=CC4(C)C3C(O)CC21C (stereo not given)
Reply text: criterion not met

Inquiry: For this compound, is normalized growth lower than 1? NS(=O)(=O)c1cc2c(cc1C(F)(F)F)NC(Cc1ccccc1)NS2(=O)=O (stereo not given)
Reply text: criterion met

Inquiry: Hello, I'm reviewing records and need to know if normalized growth of C[C@@H]1O[C@@H](O[C@H]2CC[C@]3(C=O)C4CC[C@]5(C)[C@@H](C6=CC(=O)OC6)CC[C@]5(O)C4CC[C@]3(O)C2)[C@H](O)[C@H](O)[C@H]1O (stereo not given in full) is below 1. Could you check?
Reply text: criterion met

Inquiry: # TODO verify normalized growth < 1 strictly for this compound: `Cc1ccc(-c2nc3ccc(C)cn3c2CC(=O)N(C)C)cc1`
Reply text: criterion not met

Inquiry: Is normalized growth strictly under 1 for the entry COC1CC(O[C@H]2CC[C@]3(C=O)C4CC[C@]5(C)C(C6=CC(=O)OC6)CC[C@]5(O)C4CC[C@]3(O)C2)OC(C)C1O (stereo not given in full) ?
Reply text: criterion met

Inquiry: Quick check: normalized growth of `CO[C@@H]1[C@@H](OC(N)=O)[C@@H](O)[C@H](Oc2ccc3c(O)c(NC(=O)c4ccc(O)c(CC=C(C)C)c4)c(=O)oc3c2C)OC1(C)C` under 1?
Reply text: criterion not met

Inquiry: Is normalized growth of `O=S(=O)(O)O` strictly below 1?
Reply text: criterion met

Inquiry: API: query returns whether the compound falls strictly under 1 in normalized growth. Query: `CN[C@H]1CC[C@@H](c2ccc(Cl)c(Cl)c2)c2ccccc21`
Reply text: criterion met

Inquiry: Record CC1(C)S[C@@H]2[C@H](NC(=O)C(C(=O)O)c3ccccc3)C(=O)N2[C@H]1C(=O)O (stereo not given in full) : is its normalized growth strictly below 1?
Reply text: criterion met

Inquiry: Answer whether the compound `O=C(O)CCc1nc(-c2ccccc2)c(-c2ccccc2)o1` has normalized growth strictly less than 1
Reply text: criterion met

----------
assay: chemical genetic growth profiling, strain panel (AID 1159580);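 further: tested at 20 µM; growth read once vehicle control cultures reached saturation at 30 °C; 1 = growth at the plate median or of vehicle wells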; conditions: S. cerevisiae deletion strains, growth OD, locus YNL250W, strain rad50, active compounds read low
Among all 5,500 compounds or so, about 2,000 (36%) were called active. Not shown: some 18% with an inconclusive outcome. This is one part of the list.
measured_quantity: normalized growth
Form rule: numeric answer, no unit written next to it.

Example cases with answers are listed next.
molecule	result_number
C[C@]12CCC(=O)C=C1CCc1ccc(O)cc12	1.01
CN(C)C(=O)C(CCN1CCC(O)(c2ccc(Cl)cc2)CC1)(c1ccccc1)c1ccccc1	1.02
NC(N)=Nc1ccc(Cl)cc1	0.984
CCOC(=O)CC(SP(=S)(OC)OC)C(=O)OCC (stereo not given)	1.01
COc1cccc2c1CCC1=CC(=O)CC[C@@]12C	0.997
COC(=O)CC1C(C)(C)C(OC(C)=O)[C@@H]2[C@@H](OC(C)=O)[C@]34O[C@@]2(O)[C@]1(C)C3CC[C@]1(C)C4=CC(=O)O[C@H]1c1ccoc1 (stereo not given in full)	1

Entry under test: C[C@H]1[C@H](C)CC[C@]2(C(=O)O)CC[C@]3(C)C(=CCC4[C@@]5(C)C[C@@H](O)[C@H](O)[C@@](C)(CO)C5[C@H](O)C[C@]43C)[C@H]12 (stereo not given in full) . Its normalized growth was 0.98

Input `COC1=CC(=O)C=C(OC)C1=O` . Output normalized growth: 0.987

Short answer for `Cc1cc(N)c2ccccc2[n+]1CCCCCCCCCC[n+]1c(C)cc(N)c2ccccc21` : normalized growth was 0.136

// normalized growth lookup, molecule = `CN(C)CC[C@H](c1ccc(Cl)cc1)c1ccccn1` , result: 0.977
